- Tested on: Ba/F3 cells KRAS G12D
- test: Ba/F3 proliferation assay (KRAS G12D)
- Assay type: cell-based
- experimental context: Mus musculus, BaF3, 72 h, AlamarBlue viability
- Protocol: Ba/F3 cells are ordered from DSMZ (ACC300, Lot17) and grown in RPMI-1640 (ATCC 30-2001)+10% FCS+10 ng/mL IL-3 at 37° C. in 5% […] atmosphere. Plasmids containing KRASG12 mutants (i.e. […], G12C, G12V) are obtained from GeneScript. To generate KRASG12-dependent Ba/F3 models, Ba/F3 cells are transduced with retroviruses containing vectors that harbor KRASG12 isoforms. Platinum-E cells (Cell Biolabs) are used for retrovirus packaging. Retrovirus is added to Ba/F3 cells. […]
value kind: pIC50
Scale explanation: pIC50 corresponds to minus log10 of a concentration expressed in moles per litre.

### Prompt Tell me measured pIC50 for `CO[C@@H]1C[C@@H]([C@H](C)Oc2nc(-c3noc4c3CCC[C@@]43CCCc4sc(N)c(C#N)c43)nc3c2n(C)c(=O)n3[C@@]23COC[C@@H]2C3)N(C)C1` please.
### Response 7.96

### Prompt Tell me measured pIC50 for `C[C@H](Oc1nc(-c2onc3c2CCC[C@@]32CCCc3sc(N)c(C#N)c32)nc2c1n(C)c(=O)n2C12COC(C1)C2)[C@@H]1CCCN1C` please.
### Response 7.29

### Prompt Tell me measured pIC50 for `Cc1nn([C@@H]2CCOC2)c2nc(-c3onc4c3CCC[C@@]43CCCc4sc(N)c(C#N)c43)nc(O[C@@H](C)[C@@H]3CCCN3C)c12` please.
### Response 7.43

Data credit: patent US20250019385A1
